- Assay system: Signal transducer and activator of transcription 3 (Homo sapiens, UniProt P40763)
- Sequence (P40763 whole entry): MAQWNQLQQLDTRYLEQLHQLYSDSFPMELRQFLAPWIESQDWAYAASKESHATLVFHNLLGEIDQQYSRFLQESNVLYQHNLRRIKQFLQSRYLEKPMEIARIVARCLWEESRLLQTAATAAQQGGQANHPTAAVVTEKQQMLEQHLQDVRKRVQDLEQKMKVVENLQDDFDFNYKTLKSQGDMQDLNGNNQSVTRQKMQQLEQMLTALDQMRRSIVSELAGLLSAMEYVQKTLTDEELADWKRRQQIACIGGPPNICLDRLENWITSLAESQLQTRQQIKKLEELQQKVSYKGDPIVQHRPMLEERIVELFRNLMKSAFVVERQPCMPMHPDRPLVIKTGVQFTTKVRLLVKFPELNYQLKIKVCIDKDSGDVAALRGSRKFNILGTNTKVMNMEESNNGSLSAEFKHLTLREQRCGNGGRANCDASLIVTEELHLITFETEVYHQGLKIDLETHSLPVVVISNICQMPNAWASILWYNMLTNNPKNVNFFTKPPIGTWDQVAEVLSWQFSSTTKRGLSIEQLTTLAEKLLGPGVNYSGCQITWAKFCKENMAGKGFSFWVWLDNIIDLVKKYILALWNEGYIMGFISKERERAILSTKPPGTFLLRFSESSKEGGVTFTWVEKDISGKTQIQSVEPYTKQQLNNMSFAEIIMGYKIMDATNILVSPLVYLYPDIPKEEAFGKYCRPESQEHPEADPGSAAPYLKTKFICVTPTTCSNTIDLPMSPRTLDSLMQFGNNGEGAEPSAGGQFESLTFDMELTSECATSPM
- Assay text: Inhibition of IFN-gamma stimulated STAT3 (unknown origin) expressed in human HeLa cells after 6 hrs by luciferase reporter gene assay
Test readout: IC50

Use the examples below as a reference point.
CC1(C)CC[C@]2(C(=O)O)CC[C@]3(C)C(=CC[C@@H]4[C@@]5(C)CC[C@H](O)C(C)(C)[C@@H]5CC[C@]43C)[C@@H]2C1 = > 50 µM
COC(=O)[C@]12CCC(C)(C)C[C@H]1C1=CC[C@@H]3[C@@]4(C)C=C(C#Cc5ccccc5)C(=O)C(C)(C)[C@@H]4CC[C@@]3(C)[C@]1(C)CC2 = > 25 µM
CCOC(=O)/C=C/C1=C[C@]2(C)[C@H]3CC=C4[C@@H]5CC(C)(C)CC[C@]5(C(=O)OC)CC[C@@]4(C)[C@]3(C)CC[C@H]2C(C)(C)C1=O = > 25 µM
COC(=O)[C@]12CCC(C)(C)C[C@H]1C1=CC[C@@H]3[C@@]4(C)C=C(OC(C)=O)C(=O)C(C)(C)[C@@H]4CC[C@@]3(C)[C@]1(C)CC2 = > 25 µM
COC(=O)[C@]12CCC(C)(C)C[C@H]1C1=CC[C@@H]3[C@@]4(C)C=C(Br)C(=O)C(C)(C)[C@@H]4CC[C@@]3(C)[C@]1(C)CC2 = > 25 µM

Query :: Endpoint output: IC50 of COC(=O)[C@]12CCC(C)(C)C[C@H]1C1=CC[C@@H]3[C@@]4(C)C=C(C(=O)O)C(=O)C(C)(C)[C@@H]4CC[C@@]3(C)[C@]1(C)CC2 . Value?
Result :: 25.7 µM

###

Entries annotated with measured pEC50
- Assay system: UniProt Q16236
- Assay text: Activation of Nrf2 (unknown origin) expressed in human HaCaT-ARE-luc cells after 6 hrs by luciferase reporter gene assay
pEC50: −log10 of the molar value.

COC(=O)[C@]12CCC(C)(C)C[C@H]1C1=CC[C@@H]3[C@@]4(C)C=C(C#Cc5ccccc5)C(=O)C(C)(C)[C@@H]4CC[C@@]3(C)[C@]1(C)CC2 = < 4.60
COC(=O)[C@]12CCC(C)(C)C[C@H]1C1=CC[C@@H]3[C@@]4(C)C=C(I)C(=O)C(C)(C)[C@@H]4CC[C@@]3(C)[C@]1(C)CC2 = < 4.60
COC(=O)[C@]12CCC(C)(C)C[C@H]1C1=CC[C@@H]3[C@@]4(C)CCC(=O)C(C)(C)[C@@H]4CC[C@@]3(C)[C@]1(C)CC2 = < 4.60
COC(=O)[C@]12CCC(C)(C)C[C@H]1C1=CC[C@@H]3[C@@]4(C)C=C(c5ccccc5)C(=O)C(C)(C)[C@@H]4CC[C@@]3(C)[C@]1(C)CC2 = < 4.60
COC(=O)[C@]12CCC(C)(C)C[C@H]1C1=CC[C@@H]3[C@@]4(C)CC(C=O)=C(O)C(C)(C)[C@@H]4CC[C@@]3(C)[C@]1(C)CC2 = < 4.60
COC(=O)[C@]12CCC(C)(C)C[C@H]1C1=CC[C@@H]3[C@@]4(C)C=CC(=O)C(C)(C)[C@@H]4CC[C@@]3(C)[C@]1(C)CC2 = < 4.60
COC(=O)[C@]12CCC(C)(C)C[C@H]1C1=CC[C@@H]3[C@@]4(C)CC(C#N)=C(O)C(C)(C)[C@@H]4CC[C@@]3(C)[C@]1(C)CC2 = < 4.60
COC(=O)C1=C[C@]2(C)[C@H]3CC=C4[C@@H]5CC(C)(C)CC[C@]5(C(=O)OC)CC[C@@]4(C)[C@]3(C)CC[C@H]2C(C)(C)C1=O = < 4.60

Query :: Endpoint output: pEC50 of COC(=O)[C@]12CCC(C)(C)C[C@H]1C1=CC[C@@H]3[C@@]4(C)C=C(C(=O)O)C(=O)C(C)(C)[C@@H]4CC[C@@]3(C)[C@]1(C)CC2 . Value?
Result :: 5.61

Query :: Endpoint output: pEC50 of COC(=O)[C@]12CCC(C)(C)C[C@H]1C1=CC[C@@H]3[C@@]4(C)C=C(c5ccc(C#N)cc5)C(=O)C(C)(C)[C@@H]4CC[C@@]3(C)[C@]1(C)CC2 . Value?
Result :: < 4.60

Query :: Endpoint output: pEC50 of COC(=O)[C@]12CCC(C)(C)C[C@H]1[C@H]1C(=O)C=C3[C@@]4(C)C=C(C#N)C(=O)C(C)(C)[C@@H]4CC[C@@]3(C)[C@]1(C)CC2 . Value?
Result :: 7.22

###

Entries annotated with measured EC50
- Assay system: Nuclear factor erythroid 2-related factor 2 (Homo sapiens, UniProt Q16236)
- Sequence (Q16236 whole entry): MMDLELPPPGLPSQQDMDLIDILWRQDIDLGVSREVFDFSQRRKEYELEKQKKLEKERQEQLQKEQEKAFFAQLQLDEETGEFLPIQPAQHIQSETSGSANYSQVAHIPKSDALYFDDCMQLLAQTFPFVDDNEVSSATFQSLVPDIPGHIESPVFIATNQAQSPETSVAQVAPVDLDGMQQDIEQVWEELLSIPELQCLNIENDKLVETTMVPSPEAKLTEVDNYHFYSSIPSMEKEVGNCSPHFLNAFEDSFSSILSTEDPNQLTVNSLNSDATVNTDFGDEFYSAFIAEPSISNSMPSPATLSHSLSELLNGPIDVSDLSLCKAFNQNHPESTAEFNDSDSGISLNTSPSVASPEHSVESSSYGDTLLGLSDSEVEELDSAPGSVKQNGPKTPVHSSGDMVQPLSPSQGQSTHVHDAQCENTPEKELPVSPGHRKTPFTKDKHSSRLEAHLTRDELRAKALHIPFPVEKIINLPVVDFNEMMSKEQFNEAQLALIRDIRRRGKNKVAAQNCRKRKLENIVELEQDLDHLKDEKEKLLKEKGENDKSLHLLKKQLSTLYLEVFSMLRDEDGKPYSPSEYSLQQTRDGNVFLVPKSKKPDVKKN
- Assay text: Activation of Nrf2 (unknown origin) expressed in human HaCaT-ARE-luc cells after 6 hrs by luciferase reporter gene assay

Use the examples below as a reference point.
COC(=O)[C@]12CCC(C)(C)C[C@H]1C1=CC[C@@H]3[C@@]4(C)C=C(C#N)C(=O)C(C)(C)[C@@H]4CC[C@@]3(C)[C@]1(C)CC2 = 1.1 µM
COC(=O)[C@]12CCC(C)(C)C[C@H]1C1=CC[C@@H]3[C@@]4(C)C=C(c5ccc(OC)cc5)C(=O)C(C)(C)[C@@H]4CC[C@@]3(C)[C@]1(C)CC2 = > 25 µM
COC(=O)[C@]12CCC(C)(C)C[C@H]1C1=CC[C@@H]3[C@@]4(C)Cc5cnoc5C(C)(C)[C@@H]4CC[C@@]3(C)[C@]1(C)CC2 = > 25 µM

Query :: Endpoint output: EC50 of COC(=O)[C@]12CCC(C)(C)C[C@H]1C1=CC[C@@H]3[C@@]4(C)C=C(OC(C)=O)C(=O)C(C)(C)[C@@H]4CC[C@@]3(C)[C@]1(C)CC2 . Value?
Result :: > 25 µM

Query :: Endpoint output: EC50 of CCOC(=O)/C=C/C1=C[C@]2(C)[C@H]3CC=C4[C@@H]5CC(C)(C)CC[C@]5(C(=O)OC)CC[C@@]4(C)[C@]3(C)CC[C@H]2C(C)(C)C1=O . Value?
Result :: > 25 µM

Query :: Endpoint output: EC50 of COC(=O)[C@]12CCC(C)(C)C[C@H]1C1=CC[C@@H]3[C@@]4(C)C=C(Br)C(=O)C(C)(C)[C@@H]4CC[C@@]3(C)[C@]1(C)CC2 . Value?
Result :: 11.5 µM
